# credit: the RNAGym collection of RNA variant scans (doi:10.1126/science.aae0568)

B1: tRNA (parent)
chain: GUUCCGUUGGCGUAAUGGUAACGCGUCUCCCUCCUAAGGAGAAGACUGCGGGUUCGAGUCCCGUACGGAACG

Variants of: B1
run_description: yeast fitness relative to wild type (ratio to wild type); higher = fitter; tRNA-Arg(CCU), competitive growth, 37 C, YPD
This sample holds only a part of the variants without activity.

| primary_sequence | yeast fitness |
| --- | --- |
| GUUCCGGUGGCGUAAUGGUAACGCGUCUCCCUCCUAAGGAGAAGACUGCGGGUUCGGGUCCCGUACGGAACG [U7G A57G] | 0.72 |
| GUUCCGUUGGCGUAAUGGUAACGCGUCUCCCUCCUAAGGAGUAGACUGCGGCUUCGAGUCCCGUACGGAACG [A42U G52C] | 0.694 |
| GUUCCGUUGGCGUGAUGGUGACGCGUCUCCCUCCUAAGGAGUAGACUGCGGGUUCGAGUCCCGUACGGAACG [A14G A20G A42U] | 0.696 |
| GUUCCGUUGGCGUAAUGGUAACGCGUCUCACUCCUUAGGAGAAGACUGCGGGUUCGAGUCCCGUACGGAACG [C30A A36U] | 0.697 |
